assay: qHTS assay to identify small molecule antagonists of the glucocorticoid receptor (GR) signaling pathway - cell viability counter screen (AID 720693); settings: GR-bla HeLa viability, CellTiter-Glo luminescence, 18 h, with 5 nM dexamethasone present; series mostly up to 58.5 µM; note: nearly all actives have a fitted effect of over 55% in size
Results filed as inconclusive are left out. Active and inactive are the calls of the source. Calls come from the whole dose curve; as a rule, active = well fitted cell-killing curve with a large enough effect in the repeat runs; inconclusive = weak or mixed curves, or effect the other way; inactive = no such curve, though single readings can be large or run the other way.
Respond only with the outcome that fits, drawn from active, inactive

Completed entries (count: 6):
CNCc1cc(F)ccc1Oc1ccc(Cl)c(Cl)c1
inactive
CC1=C(/C=C/C(C)=C/C=C/C(C)=C/C=O)C(C)(C)CCC1
active
CN(C/C=C/C#CC(C)(C)C)Cc1cccc2ccccc12
inactive
CC(C)=CCOc1ccc(/C=C/C(=O)c2ccc(OCC=C(C)C)cc2OCC(=O)O)cc1
inactive
CCC(C)(C)C1CCCCC1OC(C)=O (stereo not drawn)
inactive
O=C1c2ccccc2Cc2ccccc21
inactive

Which outcome was assigned to "c1ccc(CSCc2ccccc2)cc1" in this test?
inactive

Which outcome was assigned to "Nc1ccc(N)c2ccccc12" in this test?
active

Which outcome was assigned to "Nc1c(Cl)cc(Cl)cc1Cl" in this test?
inactive

Which outcome was assigned to "CCOc1ccc2nc3cc(N)ccc3c(N)c2c1" in this test?
inactive

Which outcome was assigned to "C[C@]12CCC(=O)C=C1CC[C@@H]1[C@@H]2[C@@H](O)C[C@@]2(C)[C@H]1CC[C@]2(O)C(=O)COC(=O)CCC(=O)O" in this test?
inactive

Which outcome was assigned to "CCOC(=O)/C=C(C)/C=C/C=C(C)/C=C/c1c(C)cc(OC)c(C)c1C" in this test?
inactive

Which outcome was assigned to "Fc1ccc(C(c2ccc(F)cc2)N2CCN(C/C=C/c3ccccc3)CC2)cc1" in this test?
inactive

====

test: qHTS assay to identify small molecule HDAC inhibitors (AID 1259364); details: HCT-116 HDAC-Glo I/II luminescence, 2 h; series mostly up to 92.4 µM; note: potency is the fitted concentration of half-maximal effect;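 note: wild-type HCT-116 cells with endogenous class I/II HDAC activity; nearly all actives have a fitted effect of over 45% in size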
Results filed as inconclusive are left out. Calls of active or inactive are those of the source. The call rests on the fitted dose curve; in most records, active means well fitted inhibition curve with a large enough effect in the repeat runs; inconclusive means weak or mixed curves; inactive means flat fitted curve, though single readings scatter.
readout_label: Potency

N=C1N=C(N)c2ccccc21
inactive
Nc1c2ccccc2nc2ccccc12
inactive
CCCCCCCCn1sc(Cl)c(Cl)c1=O
inactive
CCCCN(CCCC)c1ccc(C(=O)c2ccccc2C(=O)O)c(O)c1
inactive
CC[C@H]1O[C@]2(CC[C@@H]1C)C[C@@H]1C[C@@H](C/C=C(\C)C[C@@H](C)/C=C/C=C3\CO[C@@H]4[C@H](O)C(C)=C[C@@H](C(=O)O1)[C@]34O)O2
inactive

Provide Potency value for the following compound: CCC1OCC(COc2ccc(Oc3ccccc3)cc2)O1 (stereo not given)
17.2 µM (active)

Provide Potency value for the following compound: "CCCCCCCCCCCCCCCCCC[N+](C)(C)C"
inactive

Provide Potency value for the following compound: "O=c1cccccc1O"
inactive

Provide Potency value for the following compound: Oc1ccc(C2(c3ccc(O)cc3)CC3CC2C2CCCC32)cc1 (stereo not given)
inactive

Provide Potency value for the following compound: "C/C(=C(/OCCOc1ccc(Cl)cc1)c1ccc(Cl)cc1Cl)n1ccnc1"
inactive

====

test: Caspase-3/7 induction in CHO-K1 cells by small molecules, qHTS cell viability counter screen (AID 1346979); settings: CellTiter-Fluor fluorescence, 17 h; series mostly up to 92.4 µM; note: potency is the fitted concentration of half-maximal effect; nearly all actives have a fitted effect of over 35% in size
Results filed as inconclusive are left out. The source made the active and inactive calls. Calls follow the shape of the dose curve; as a rule, active = well fitted cell-killing curve with a large enough effect in the repeat runs; inconclusive = weak or mixed curves, or effect the other way; inactive = no such curve, though single readings can be large or run the other way.
Respond only with the outcome that fits, drawn from active, inactive

Which outcome was assigned to "CCCCCCCC[P+](CCCCCCCC)(CCCCCCCC)CCCCCCCC" in this test?
active
